- targetOrTestSystem: Beta-adrenergic receptor kinase 1 (Homo sapiens, UniProt P25098)
- Sequence (P25098 whole entry): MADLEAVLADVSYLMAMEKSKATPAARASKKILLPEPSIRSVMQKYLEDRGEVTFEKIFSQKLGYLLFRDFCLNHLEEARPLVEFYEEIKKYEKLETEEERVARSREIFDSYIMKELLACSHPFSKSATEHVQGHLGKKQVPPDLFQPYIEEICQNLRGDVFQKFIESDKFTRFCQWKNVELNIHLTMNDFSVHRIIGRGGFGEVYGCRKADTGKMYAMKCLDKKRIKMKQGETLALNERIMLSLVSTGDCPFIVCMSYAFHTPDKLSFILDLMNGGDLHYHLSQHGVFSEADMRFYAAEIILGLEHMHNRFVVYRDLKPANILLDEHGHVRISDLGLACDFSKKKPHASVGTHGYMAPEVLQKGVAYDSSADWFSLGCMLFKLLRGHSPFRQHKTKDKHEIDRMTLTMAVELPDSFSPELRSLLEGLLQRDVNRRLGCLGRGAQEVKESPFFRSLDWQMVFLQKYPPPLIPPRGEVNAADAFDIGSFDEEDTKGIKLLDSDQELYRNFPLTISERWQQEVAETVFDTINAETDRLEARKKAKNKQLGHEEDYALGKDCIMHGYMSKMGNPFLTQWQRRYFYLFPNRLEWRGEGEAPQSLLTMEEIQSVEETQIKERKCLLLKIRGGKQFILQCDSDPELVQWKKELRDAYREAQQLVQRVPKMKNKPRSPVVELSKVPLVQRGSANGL
Item-by-item account of IC50
Lab book: enter the figure in µM, no units written.

As a guide, the following entries are already answered.
molecularString: Nc1ncc(-c2cnn(C3CCNCC3)c2)cc1-c1nc2cc(N3CCCCC3)ccc2o1
IC50 / µM: 0.85
--
molecularString: COc1ccc(C(=O)Nc2ccc3nc(-c4cc(-c5cnn(C6CCNCC6)c5)cnc4N)oc3c2)cc1
IC50 / µM: 3.97
--
molecularString: CC(=O)Nc1ccc2oc(-c3cc(-c4cnn(C5CCNCC5)c4)cnc3N)nc2c1
IC50 / µM: 3.06
--
molecularString: Nc1ncc(-c2cnn(C3CCNCC3)c2)cc1-c1nc2ccc(NC(=O)c3ccc(F)cc3)cc2o1
IC50 / µM: 0.96
--
molecularString: Nc1ncc(-c2cnn(C3CCNCC3)c2)cc1-c1nc2cc(N3CCOCC3)ccc2o1
IC50 / µM: 6.43

QUERY: What value of IC50 has been reported for the following compound? "COc1ccc(-c2ccc3nc(-c4cc(-c5cnn(C6CCNCC6)c5)cnc4N)oc3c2)cc1"
RESULT: 3.06

---

Endpoint: pIC50. System: Beta-adrenergic receptor kinase 1 (Homo sapiens). Items follow.
Scale: pIC50 equals -log10([C]), with [C] in mol/L.

molecularString: Nc1ncc(-c2cnn(C3CCNCC3)c2)cc1-c1nc2ccc(-c3ccc4[nH]ncc4c3)cc2o1
readoutName: pIC50
obsValue: 5.39

molecularString: COc1ccc2nc(-c3cc(-c4cnn(C5CCNCC5)c4)cnc3N)oc2c1-c1ccc2cn[nH]c2c1
readoutName: pIC50
obsValue: 5.04

molecularString: Cc1cc2nc(-c3cc(-c4cnn(C5CCNCC5)c4)cnc3N)oc2cc1O
readoutName: pIC50
obsValue: 5.67

molecularString: Cc1ccc(S(=O)(=O)NC(=O)Nc2ccc3nc(-c4cc(-c5cnn(C6CCNCC6)c5)cnc4N)oc3c2)cc1
readoutName: pIC50
obsValue: 5.08

molecularString: CN(C)c1ccc2oc(-c3cc(-c4cnn(C5CCNCC5)c4)cnc3N)nc2c1
readoutName: pIC50
obsValue: 5.08

molecularString: Nc1ncc(-c2cnn(C3CCNCC3)c2)cc1-c1nc2ccc(Nc3ccccn3)cc2o1
readoutName: pIC50
obsValue: 5.22

Now for the compound whose pIC50 we want.
QUERY: What value of pIC50 has been reported for the following compound? "Nc1ncc(-c2cnn(C3CCNCC3)c2)cc1-c1nc2ccc(NC(=O)c3ccccc3)cc2o1"
RESULT: 5.50

---

- targetOrTestSystem: Beta-adrenergic receptor kinase 1 (Homo sapiens, UniProt P25098)
- Sequence (P25098 whole entry): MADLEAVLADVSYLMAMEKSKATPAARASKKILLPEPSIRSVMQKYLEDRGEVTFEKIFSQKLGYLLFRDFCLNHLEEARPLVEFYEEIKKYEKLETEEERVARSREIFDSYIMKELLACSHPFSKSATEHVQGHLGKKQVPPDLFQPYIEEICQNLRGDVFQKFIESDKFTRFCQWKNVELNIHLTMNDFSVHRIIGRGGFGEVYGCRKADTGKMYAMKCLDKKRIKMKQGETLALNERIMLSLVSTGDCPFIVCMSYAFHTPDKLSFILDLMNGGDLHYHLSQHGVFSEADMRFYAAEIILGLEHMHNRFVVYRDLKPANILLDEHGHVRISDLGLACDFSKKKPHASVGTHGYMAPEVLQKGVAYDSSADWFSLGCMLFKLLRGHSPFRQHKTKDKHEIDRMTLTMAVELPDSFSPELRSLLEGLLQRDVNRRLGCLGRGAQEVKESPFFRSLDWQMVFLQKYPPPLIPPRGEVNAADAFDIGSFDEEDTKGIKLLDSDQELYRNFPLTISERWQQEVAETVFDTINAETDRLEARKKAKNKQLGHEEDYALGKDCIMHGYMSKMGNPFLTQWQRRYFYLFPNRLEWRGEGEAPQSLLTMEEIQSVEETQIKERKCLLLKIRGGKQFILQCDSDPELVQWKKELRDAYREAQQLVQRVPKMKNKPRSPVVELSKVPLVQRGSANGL
readoutName: pIC50
Scale: pIC50 equals -log10([C]), with [C] in mol/L.

molecularString: N#Cc1ccnc(Oc2ccc3nc(-c4cc(-c5cnn(C6CCNCC6)c5)cnc4N)oc3c2)c1
targetOrTestSystem: Beta-adrenergic receptor kinase 1 (Homo sapiens, UniProt P25098)
readoutName: pIC50
obsValue: 5.09

molecularString: Nc1ccc2nc(-c3cc(-c4cnn(C5CCNCC5)c4)cnc3N)oc2c1
targetOrTestSystem: Beta-adrenergic receptor kinase 1 (Homo sapiens, UniProt P25098)
readoutName: pIC50
obsValue: 5.21

molecularString: Nc1ncc(-c2cnn(C3CCNCC3)c2)cc1-c1nc2ccc(O)c(-c3ccccc3)c2o1
targetOrTestSystem: Beta-adrenergic receptor kinase 1 (Homo sapiens, UniProt P25098)
readoutName: pIC50
obsValue: 5.01

molecularString: Nc1ncc(-c2cnn(C3CCNCC3)c2)cc1-c1nc2ccc(Nc3cc(F)cc(F)c3)cc2o1
targetOrTestSystem: Beta-adrenergic receptor kinase 1 (Homo sapiens, UniProt P25098)
readoutName: pIC50
obsValue: 5.65

molecularString: Nc1ncc(-c2cnn(C3CCNCC3)c2)cc1-c1nc2ccc(N3CCCC3)cc2o1
targetOrTestSystem: Beta-adrenergic receptor kinase 1 (Homo sapiens, UniProt P25098)
readoutName: pIC50
obsValue: 6.34

QUERY: What value of pIC50 has been reported for the following compound? "Nc1ncc(-c2cnn(C3CCNCC3)c2)cc1-c1nc2ccc(NC(=O)Nc3ccccc3)cc2o1"
RESULT: 5.58

QUERY: How about this compound: "Nc1ncc(-c2cnn(C3CCNCC3)c2)cc1-c1nc2ccc(NC(=O)Nc3ccc(F)cc3)cc2o1"
RESULT: 5.76

---

- targetOrTestSystem: G protein-coupled receptor kinase 5 (Homo sapiens)
Just a reminder that ties go to NOT MET: only IC50 strictly below 3 µM counts as MET.

Worked set:
molecularString: CS(=O)(=O)Oc1ccc2nc(-c3cc(-c4cnn(C5CCNCC5)c4)cnc3N)oc2c1
discreteLabel: NOT MET
//
molecularString: CN(C)COc1cccc(-c2cnc(N)c(-c3nc4cccc(-c5ccccn5)c4o3)c2)c1
discreteLabel: NOT MET

With those in mind, consider the next compound.
QUERY: Dear colleague, could you confirm whether IC50 of "Nc1ncc(-c2cnn(C3CCNCC3)c2)cc1-c1nc2ccc(Oc3ccc(-c4ccccc4)nn3)cc2o1" falls below 3 µM? Thanks.
RESULT: MET

---

- targetOrTestSystem: G protein-coupled receptor kinase 5 (Homo sapiens, UniProt P34947)
- Sequence (P34947 whole entry): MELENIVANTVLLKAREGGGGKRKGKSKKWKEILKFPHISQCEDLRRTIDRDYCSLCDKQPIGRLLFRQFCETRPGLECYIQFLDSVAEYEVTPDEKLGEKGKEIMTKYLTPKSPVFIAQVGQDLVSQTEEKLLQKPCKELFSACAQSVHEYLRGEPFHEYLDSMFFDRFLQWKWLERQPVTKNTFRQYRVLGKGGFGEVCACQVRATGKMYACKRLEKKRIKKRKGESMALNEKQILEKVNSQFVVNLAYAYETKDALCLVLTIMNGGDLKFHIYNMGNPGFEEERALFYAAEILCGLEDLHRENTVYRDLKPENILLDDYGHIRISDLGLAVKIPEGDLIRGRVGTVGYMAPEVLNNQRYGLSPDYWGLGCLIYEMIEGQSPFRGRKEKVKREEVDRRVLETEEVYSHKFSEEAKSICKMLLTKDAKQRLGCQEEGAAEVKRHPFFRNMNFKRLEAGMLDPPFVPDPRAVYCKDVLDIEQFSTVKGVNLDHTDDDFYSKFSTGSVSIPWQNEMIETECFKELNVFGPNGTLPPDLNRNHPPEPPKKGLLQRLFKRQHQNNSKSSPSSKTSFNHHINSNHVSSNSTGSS
// map IC50 onto a label; ranges low range (below 2 µM), mid range (2 µM to below 4 µM), high range (4 µM or more)

Worked set:
molecularString: Nc1ncc(-c2cnn(C3CCNCC3)c2)cc1-c1nc2ccc(N3CCCCC3)cc2o1
discreteLabel: high range
//
molecularString: Nc1ncc(-c2cnn(C3CCNCC3)c2)cc1-c1nc2ccc(Oc3ccc(F)cc3)cc2o1
discreteLabel: high range
//
molecularString: CN(C)c1ccc2oc(-c3cc(-c4cnn(C5CCNCC5)c4)cnc3N)nc2c1
discreteLabel: low range

QUERY: // return the class label for "Cc1c(O)ccc2nc(-c3cc(-c4cnn(C5CCNCC5)c4)cnc3N)oc12"
RESULT: mid range

QUERY: How about this molecule: "Nc1ncc(-c2cnn(C3CCNCC3)c2)cc1-c1nc2ccc(NC(=O)Nc3ccccc3)cc2o1"
RESULT: low range

QUERY: How about this molecule: "Nc1ncc(-c2cnn(C3CCNCC3)c2)cc1-c1nc2cc(Nc3ccccc3)ccc2o1"
RESULT: mid range

QUERY: How about this molecule: "Nc1ncc(-c2cnn(C3CCNCC3)c2)cc1-c1nc2ccc(Nc3ccccn3)cc2o1"
RESULT: high range
